- protocolNotes: Pharmacokinetics of intramuscular injection of Compound 21 and prodrug thereof in rats
- measurementSetup: SD, in vivo, im, 20 umol/kg, rat, carboxylic diester prodrug 20 μmol/kg, analyte: prodrug itself, read-out: Cmax of the prodrug
readoutName: Cmax (nM)

>  <compound>
C[C@@]12CCCCC[C@@H](Cc3c(F)cc(OC(=O)CCCCC(=O)Oc4cc(F)c5c(c4)[C@@]4(C)CCCCC[C@@H](C5)[C@@H]4N)cc31)[C@@H]2N [Compound 34]

>  <readoutName>
Cmax

>  <quantityUnit>
nM

>  <reportedMeasurement>
3.91

$$$$

====

- targetOfAssay: UniProtKB P35372
- protocolNotes: FLIPR intracellular calcium signal test, HEK293-μ cells
- measurementSetup: IC50 (inhibition) test against EC80 of positive agonist, read-out: Mu receptor IC50
IC50 by entry:

>  <molecule>
C[C@]12CCCCC[C@H](Cc3c(F)cc(O)cc31)[C@@H]2N

>  <IC50>
100 to 1000 nM

$$$$
>  <molecule>
Cc1cc2c(cc1O)C1(C)CCCCCC(C2)C1N (stereo not shown)

>  <IC50>
10000 to 100000 nM

$$$$
>  <molecule>
CC12CCCCCC(Cc3cc(O)c(O)cc31)C2N (stereo not shown)

>  <IC50>
10000 to 100000 nM

$$$$
>  <molecule>
CC12CCOCCC(Cc3ccc(O)cc31)C2N (stereo not shown)

>  <IC50>
1000 to 10000 nM

$$$$
>  <molecule>
CC12CCCCC(Cc3c(F)cc(O)cc31)C2N (single isomer, unassigned) [Compound 32]

>  <IC50>
100 to 1000 nM

$$$$
>  <molecule>
CC12CCCCCC(Cc3cc(Br)c(O)cc31)C2N (stereo not shown)

>  <IC50>
10000 to 100000 nM

$$$$
>  <molecule>
Cc1cc(O)cc2c1CC1CCCCCC2(C)C1N (stereo not shown)

>  <IC50>
≤ 100 nM

$$$$
>  <molecule>
COc1cc(O)cc2c1CC1CCCCCC2(C)C1N (stereo not shown)

>  <IC50>
1000 to 10000 nM

$$$$
>  <molecule>
CC12CCCCCC(Cc3ccc(O)c(F)c31)C2N (stereo not shown)

>  <IC50>
100 to 1000 nM

$$$$
>  <molecule>
CCc1cc(O)cc2c1CC1CCCCCC2(C)C1N (stereo not shown)

>  <IC50>
1000 to 10000 nM

$$$$

====

- targetOfAssay: UniProt:P41143
- Sequence (P41143 whole entry): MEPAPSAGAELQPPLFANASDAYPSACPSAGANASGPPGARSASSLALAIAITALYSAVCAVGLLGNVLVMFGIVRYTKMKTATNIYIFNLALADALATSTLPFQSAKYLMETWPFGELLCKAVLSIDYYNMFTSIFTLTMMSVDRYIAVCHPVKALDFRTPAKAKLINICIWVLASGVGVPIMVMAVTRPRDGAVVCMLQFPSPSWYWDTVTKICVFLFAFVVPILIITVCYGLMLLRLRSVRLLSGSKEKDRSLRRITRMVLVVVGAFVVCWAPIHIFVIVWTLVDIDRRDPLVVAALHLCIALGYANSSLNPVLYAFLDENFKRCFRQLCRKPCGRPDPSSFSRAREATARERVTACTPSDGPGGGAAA
- protocolNotes: FLIPR intracellular calcium signal test, HEK293-δ cells
- measurementSetup: IC50 (inhibition) test against EC80 of positive agonist, read-out: Delt receptor IC50
Structures can show the parent of a compound that is named as a salt.
IC50 by entry:
readoutName: IC50

>  <molecule>
Cc1cc2c(cc1O)C1(C)CCCCCC(C2)C1N (stereo not drawn)

>  <readoutName>
IC50

>  <reportedMeasurement>
> 100 µM

$$$$
>  <molecule>
CC12CCCCCC(Cc3c(Cl)cc(O)cc31)C2N (stereo not drawn)

>  <readoutName>
IC50

>  <reportedMeasurement>
1 to 10 µM

$$$$
>  <molecule>
CC12CCCCCC(Cc3cc(Cl)c(O)c(Cl)c31)C2N (stereo not drawn)

>  <readoutName>
IC50

>  <reportedMeasurement>
> 100 µM

$$$$
>  <molecule>
CC12CCCCC(Cc3c(F)cc(O)cc31)C2N (single isomer, unassigned) [Compound 32]

>  <readoutName>
IC50

>  <reportedMeasurement>
1 to 10 µM

$$$$
>  <molecule>
CC12CCCCCC(Cc3c(CO)cc(O)cc31)C2N (stereo not drawn)

>  <readoutName>
IC50

>  <reportedMeasurement>
> 100 µM

$$$$
>  <molecule>
CC12CCCCC(Cc3c(F)cc(O)cc31)C2N (single isomer, unassigned) [Compound 33]

>  <readoutName>
IC50

>  <reportedMeasurement>
1 to 10 µM

$$$$
>  <molecule>
C[C@]12CCOCC[C@H](Cc3ccc(O)cc31)[C@H]2N

>  <readoutName>
IC50

>  <reportedMeasurement>
> 100 µM

$$$$
>  <molecule>
CC12CCCCCC(Cc3cc(C4CC4)c(O)cc31)C2N (stereo not drawn)

>  <readoutName>
IC50

>  <reportedMeasurement>
> 100 µM

$$$$
>  <molecule>
COc1cc(O)cc2c1CC1CCCCCC2(C)C1N (stereo not drawn)

>  <readoutName>
IC50

>  <reportedMeasurement>
> 100 µM

$$$$
>  <molecule>
CC(C)c1cc2c(cc1O)C1(C)CCCCCC(C2)C1N (stereo not drawn)

>  <readoutName>
IC50

>  <reportedMeasurement>
> 100 µM

$$$$
>  <molecule>
CC12CCCCCC(Cc3ccc(O)c(F)c31)C2N (stereo not drawn)

>  <readoutName>
IC50

>  <reportedMeasurement>
> 100 µM

$$$$
>  <molecule>
CC12CCCCCC(Cc3cc(Br)c(O)cc31)C2N (stereo not drawn)

>  <readoutName>
IC50

>  <reportedMeasurement>
> 100 µM

$$$$
>  <molecule>
CC12CCCCCC(Cc3c(-c4ccccc4)cc(O)cc31)C2N (stereo not drawn)

>  <readoutName>
IC50

>  <reportedMeasurement>
> 100 µM

$$$$
>  <molecule>
CC12CCCCCC(Cc3cc(C#N)c(O)cc31)C2N (stereo not drawn)

>  <readoutName>
IC50

>  <reportedMeasurement>
> 100 µM

$$$$
>  <molecule>
CC12CCCCCC(Cc3c(O)cc(O)cc31)C2N (stereo not drawn)

>  <readoutName>
IC50

>  <reportedMeasurement>
> 100 µM

$$$$
>  <molecule>
CC12CCCCCC(Cc3cc(Cl)c(O)cc31)C2N (stereo not drawn) [Hydrochloride of Compound 16]

>  <readoutName>
IC50

>  <reportedMeasurement>
> 100 µM

$$$$
>  <molecule>
CCc1cc(O)cc2c1CC1CCCCCC2(C)C1N (stereo not drawn)

>  <readoutName>
IC50

>  <reportedMeasurement>
> 100 µM

$$$$
>  <molecule>
C[C@]12CCCCC[C@H](Cc3c(F)cc(O)cc31)[C@@H]2N

>  <readoutName>
IC50

>  <reportedMeasurement>
10 to 100 µM

$$$$
>  <molecule>
C[C@]12CCCCC[C@@H](Cc3c(Cl)cc(O)cc31)[C@@H]2N

>  <readoutName>
IC50

>  <reportedMeasurement>
> 100 µM

$$$$
>  <molecule>
C[C@]12CCCCC[C@H](Cc3c(Cl)cc(O)cc31)[C@H]2N

>  <readoutName>
IC50

>  <reportedMeasurement>
1 to 10 µM

$$$$
>  <molecule>
CC12CCOCCC(Cc3ccc(O)cc31)C2N (stereo not drawn)

>  <readoutName>
IC50

>  <reportedMeasurement>
> 100 µM

$$$$

====

- protocolNotes: Pharmacokinetics of intramuscular injection of Compound 21 and prodrug thereof in rats
- measurementSetup: SD, in vivo, im, 40 umol/kg, rat, Compound 21 itself dosed at 40 μmol/kg, sesame oil suspension, read-out: AUC0-last
readoutName: AUC(0-t) (µM·h)

>  <compound>
C[C@@]12CCCCC[C@@H](Cc3c(F)cc(O)cc31)[C@@H]2N [Compound 21]

>  <reportedMeasurement>
3.99

$$$$

====

- targetOfAssay: μ opioid receptor (Homo sapiens, UniProt P35372)
- Sequence (P35372 whole entry): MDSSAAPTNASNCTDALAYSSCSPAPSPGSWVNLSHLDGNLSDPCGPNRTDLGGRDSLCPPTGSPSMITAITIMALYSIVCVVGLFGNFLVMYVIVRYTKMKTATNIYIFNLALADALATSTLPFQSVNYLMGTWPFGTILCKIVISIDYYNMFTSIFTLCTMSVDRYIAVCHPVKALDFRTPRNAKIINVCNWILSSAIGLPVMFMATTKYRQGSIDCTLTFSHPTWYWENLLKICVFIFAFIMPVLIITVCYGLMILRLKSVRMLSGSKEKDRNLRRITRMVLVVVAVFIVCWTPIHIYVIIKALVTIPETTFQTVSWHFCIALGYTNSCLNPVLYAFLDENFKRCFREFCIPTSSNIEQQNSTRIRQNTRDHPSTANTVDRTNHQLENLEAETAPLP
- protocolNotes: FLIPR intracellular calcium signal test, HEK293-μ cells
- measurementSetup: IC50 (inhibition) test against EC80 of positive agonist, read-out: Mu receptor IC50
Where a name gives a salt, the structure may show the parent alone.
IC50 by entry:
readoutName: IC50

>  <compound>
CC12CCCCCC(Cc3c(F)cc(O)cc31)C2N (stereo not shown)

>  <reportedMeasurement>
0.1 to 1 µM

$$$$
>  <compound>
C[C@]12CCOCC[C@H](Cc3ccc(O)cc31)[C@H]2N

>  <reportedMeasurement>
10 to 100 µM

$$$$
>  <compound>
CC(C)c1cc2c(cc1O)C1(C)CCCCCC(C2)C1N (stereo not shown)

>  <reportedMeasurement>
10 to 100 µM

$$$$
>  <compound>
C[C@]12CCCCC[C@@H](Cc3c(Cl)cc(O)cc31)[C@@H]2N

>  <reportedMeasurement>
≤ 0.1 µM

$$$$
>  <compound>
C[C@@]12CCCCC[C@@H](Cc3c(F)cc(O)cc31)[C@@H]2N

>  <reportedMeasurement>
≤ 0.1 µM

$$$$
>  <compound>
CC12CCCCCC(Cc3cc(Cl)c(O)cc31)C2N (stereo not shown) [Hydrochloride of Compound 16]

>  <reportedMeasurement>
1 to 10 µM

$$$$
>  <compound>
CC12CCCCCC(Cc3c(Cl)cc(O)cc31)C2N (stereo not shown)

>  <reportedMeasurement>
0.1 to 1 µM

$$$$
>  <compound>
C[C@@]12CCOCC[C@@H](Cc3ccc(O)cc31)[C@@H]2N

>  <reportedMeasurement>
1 to 10 µM

$$$$
>  <compound>
CC12CCCCCC(Cc3cc(C#N)c(O)cc31)C2N (stereo not shown)

>  <reportedMeasurement>
> 100 µM

$$$$
>  <compound>
CC12CCCCC(Cc3c(F)cc(O)cc31)C2N (single isomer, unassigned) [Compound 33]

>  <reportedMeasurement>
1 to 10 µM

$$$$
